System: PBMC
Protocol Text: Cytotoxicity against human PBMC cells at 50 ug/mL after 24 hrs by MTT assay relative to DMSO-treated control
Format: cell-based

Smiles Repr: CSc1ccc2c(c1)Sc1cc3ccccc3nc1N2CCCNC(=O)NCCCl
Activity: 92.7%

Smiles Repr: FC(F)(F)c1cccc2c1Sc1cc3ccccc3nc1N2
Activity: Non-toxic

Smiles Repr: O=C(NCCCl)NCCCN1c2ccccc2Sc2cc3ccccc3nc21
Activity: Non-toxic

Smiles Repr: CC(=O)NCCCN1c2ccccc2Sc2cc3ccccc3nc21
Activity: 91.9%

###

System: PBMC
Protocol Text: Antiproliferative activity against PHA-stimulated human PBMC at 50 ug/mL after 4 days by MTT assay relative to DMSO-treated control
Format: functional
# Lookup of reported Activity keyed by entry
Property Name: Activity (%)

Smiles Repr: Brc1ccc2c(c1)Nc1nc3ccccc3cc1S2
Output Unit: %
Experimental Result: 20.6
--
Smiles Repr: CSc1ccc2c(c1)Sc1cc3ccccc3nc1N2CCCCNC(C)=O
Output Unit: %
Experimental Result: 42
--
Smiles Repr: CC(=O)NCCCCN1c2ccc(Cl)cc2Sc2cc3ccccc3nc21
Output Unit: %
Experimental Result: 92.6
--
Smiles Repr: c1ccc2c(c1)Nc1nc3ccccc3cc1S2
Output Unit: %
Experimental Result: 14.4
--
Smiles Repr: Brc1cccc2c1Sc1cc3ccccc3nc1N2
Output Unit: %
Experimental Result: 16.4
--
Smiles Repr: Cc1ccc(S(=O)(=O)NCCCCN2c3ccccc3Sc3cc4ccccc4nc32)cc1
Output Unit: %
Experimental Result: 2.4
--
Smiles Repr: CC(=O)NCCCN1c2ccccc2Sc2cc3ccccc3nc21
Output Unit: %
Experimental Result: 92.4
--
Smiles Repr: CS(=O)(=O)NCCCCN1c2ccc(Cl)cc2Sc2cc3ccccc3nc21
Output Unit: %
Experimental Result: 43.9
--
Smiles Repr: CCOC(=O)NCCCCN1c2ccccc2Sc2cc3ccccc3nc21
Output Unit: %
Experimental Result: 83.7
--
Smiles Repr: FC(F)(F)c1cccc2c1Sc1cc3ccccc3nc1N2
Output Unit: %
Experimental Result: 13.6
--
Smiles Repr: Cc1ccc(S(=O)(=O)NCCCCN2c3ccc(Cl)cc3Sc3cc4ccccc4nc32)cc1
Output Unit: %
Experimental Result: 19.8
--
Smiles Repr: Clc1ccc2c(c1)Sc1cc3ccccc3nc1N2CCN1CCCCC1
Output Unit: %
Experimental Result: 98.2
--
Smiles Repr: CSc1ccc2c(c1)Sc1cc3ccccc3nc1N2
Output Unit: %
Experimental Result: 2.9
--
Smiles Repr: CCOC(=O)NCCCN1c2ccc(SC)cc2Sc2cc3ccccc3nc21
Output Unit: %
Experimental Result: 38.8
--
Smiles Repr: CSc1ccc2c(c1)Sc1cc3ccccc3nc1N2CCN1CCCCC1
Output Unit: %
Experimental Result: 92
--
Smiles Repr: FC(F)(F)c1ccc2c(c1)Sc1cc3ccccc3nc1N2
Output Unit: %
Experimental Result: 61
--
Smiles Repr: CS(=O)(=O)NCCCN1c2ccccc2Sc2cc3ccccc3nc21
Output Unit: %
Experimental Result: 74.6
--
Smiles Repr: CS(=O)(=O)NCCCN1c2ccc(Cl)cc2Sc2cc3ccccc3nc21
Output Unit: %
Experimental Result: 74.4
--
Smiles Repr: CCOC(=O)NCCCN1c2ccccc2Sc2cc3ccccc3nc21
Output Unit: %
Experimental Result: 88.4
--
Smiles Repr: CSc1ccc2c(c1)Sc1cc3ccccc3nc1N2CCCNC(=O)NCCCl
Output Unit: %
Experimental Result: 93.7
--
Smiles Repr: CCOC(=O)NCCCCN1c2ccc(Cl)cc2Sc2cc3ccccc3nc21
Output Unit: %
Experimental Result: -12
--
Smiles Repr: CSc1ccc2c(c1)Sc1cc3ccccc3nc1N2CCCCNS(=O)(=O)c1ccc(C)cc1
Output Unit: %
Experimental Result: -34.7
--
Smiles Repr: Clc1cccc2c1Sc1cc3ccccc3nc1N2
Output Unit: %
Experimental Result: 10.8
--
Smiles Repr: CSc1ccc2c(c1)Sc1cc3ccccc3nc1N2CCCNS(C)(=O)=O
Output Unit: %
Experimental Result: 65.4
